Can you tell me self-cleavage for the items I'm about to list?
B1: LINE1-full (parent)
chain: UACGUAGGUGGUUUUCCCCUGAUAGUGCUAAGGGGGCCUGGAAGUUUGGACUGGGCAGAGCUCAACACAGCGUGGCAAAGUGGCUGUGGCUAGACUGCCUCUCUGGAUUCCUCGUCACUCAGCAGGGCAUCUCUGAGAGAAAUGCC

Variants of: B1
Assay: self-cleavage, relative activity (ratio to wild type); higher = more cleavage; in vitro, sequencing; the parent is a self-cleaving ribozyme
The answer should be written as a number, with no unit following it.

(Q) Fill in: self-cleavage of UACGUAGGUGGUUUUCCCCUGAUAGGGCUAAGGGGGCCUGGAAGUUUGGACUGGGCAGAGCUCAACACAGCGUGGCAAAGUGGCUGUGGCCAGACUGCCUCUCUGGAUUCCUCGUCACUCAGCAGGGCAUCUCUGAGAGAAAUGCC [U26G U91C] is ___
(A) 0.44

(Q) Fill in: self-cleavage of UACGUAGGUGGUUAUCCCCUGAUAGUGCUAAGGGGGCCUGGAAGUUUGGACUGGGCAGAGCUCAACACAGCGUGGCGAAGUGGCUGUGGCUAGACUGCCUCUCUGGAUUCCUCGUCACUCAGCAGGGCAUCUCUGAGAGAAAUGCC [U14A A77G] is ___
(A) 1.39

(Q) Fill in: self-cleavage of UAUGUAGGUGGUUUUCCCCUGAUAGCGCUAAGGGGGCCUGGAAGUUUGGACUGGGCAGAGCUCAACACAGCGUGGCAAAGUGGCUGUGGCUAGACUGCCUCUCUGGAUUCCUCGUCACUCAGCAGGGCAUCUCUGAGAGAAAUGCC [C3U U26C] is ___
(A) 1.01

(Q) Fill in: self-cleavage of UACGUAGGUGGUUUUCCCCUGAUAGUGCUAAGGGGGCCUGGAAGUUUGGACUGGGCAGAGCUCAACUCAGCGUGGCAAAGUGGCUGUGGCUAGACUGCCUCUCUGGAUUCCUCGUCACUCAGCAGGGCAUCUCUGAGAGAAAUGCC [A67U] is ___
(A) 0.11

(Q) Fill in: self-cleavage of UACGUAGGUGGUUUUCCCCUGAUAGUGCUAAGGGGGCCUGGAAGUUUGCACUGGGCAGAGCUCAACACAGCGUGGCAAAGUGGCUGUGGCUAGACUGCCUCUCUGGAUUCCUCGUCACUCAGCAGGGCAUCUCUGAGGGAAAUGCC [G49C A138G] is ___
(A) 1.59

(Q) Fill in: self-cleavage of UACGUAGGUGGUUUUCCCCUGAUAGUGCUAAGGGGGCCUGGAAGUUUGGACUGGGCAGAGCUCAACACAGCGUGGCAAAGUGGCUGUGGCUAGACUGCCUCUCUGUAUUCCUCGUCACUCAGCAGGGCACCUCUGAGAGAAAUGCC [G106U U130C] is ___
(A) 1.29

(Q) Fill in: self-cleavage of UACGUAGGUGGUUUUCCCCUGAUAGUGCCAAGGGGGCCUGGAAGUUUGGACUGGGCAGAGCUCAACACAGCGUGGCAAAGUGGCUGUGGCUAGACUGCCUCUCUGGAUUCCUCGUCACUCAGCGGGGCAUCUCUGAGAGAAAUGCC [U29C A124G] is ___
(A) 1.02

(Q) Fill in: self-cleavage of UACGUAGGUGGUUUUCCCCUGAUAGUGCUAAGGGGGCCUGGAAGUUUGGCCUGGGCAGAGCUCAUCACAGCGUGGCAAAGUGGCUGUGGCUAGACUGCCUCUCUGGAUUCCUCGUCACUCAGCAGGGCAUCUCUGAGAGAAAUGCC [A50C A65U] is ___
(A) 0.31

(Q) Fill in: self-cleavage of UACGUAGGUGGUUUUCCCCUGAUAGUGCCAAGGGGGCCUGGAAGUUUGGACUGGGCAGAGCUCAACACAUCGUGGCAAAGUGGCUGUGGCUAGACUGCCUCUCUGGAUUCCUCGUCACUCAGCAGGGCAUCUCUGAGAGAAAUGCC [U29C G70U] is ___
(A) 0.01

(Q) Fill in: self-cleavage of UACGUAGGUGGUAUUCCCCUGAUAGUGCUAAGGGGGCCUGGAAGUUUGGACUGGGCAGAGCUCAACACAGCGUGGCAAAGUGGCUGUGGCUAGACUGCCUCUCUGGAUUCCUCGUCACUCAGCAGGGCAUCUCCGAGAGAAAUGCC [U13A U134C] is ___
(A) 0.85

(Q) Fill in: self-cleavage of UACGUAGGUGGUUUUCCCCUGAUAGAGCUAAGGGGGCCUGGAAGUUUGGACAGGGCAGAGCUCAACACAGCGUGGCAAAGUGGCUGUGGCUAGACUGCCUCUCUGGAUUCCUCGUCACUCAGCAGGGCAUCUCUGAGAGAAAUGCC [U26A U52A] is ___
(A) 0.81

(Q) Fill in: self-cleavage of UACGUAGGUGGUUUUCCCCUGAUAGUGCUAAGGGGGCCUGGAAGUUUGGACUGGGCAGAGCUCAACACAGCGUGGCAAAGUGGCUGUGGCUAGACUGCCUCUCAGGAUUCCUCGUUACUCAGCAGGGCAUCUCUGAGAGAAAUGCC [U104A C116U] is ___
(A) 0.9

(Q) Fill in: self-cleavage of UACGUAGGUGGUUUUCCCCUGAUAGUGCUAAGGGGGCCUGGAAGUUUGGACUGGGCAGAGCUCAACACAGCGUGGCAAAGAGGCUGUGGCUAGACAGCCUCUCUGGAUUCCUCGUCACUCAGCAGGGCAUCUCUGAGAGAAAUGCC [U81A U96A] is ___
(A) 0.07

(Q) Fill in: self-cleavage of UACGUAGGUGGUUCUCCCCUGAUAGUGCUAAGGGGGCCUGGAAGUUUGGACUGGGCAGAUCUCAACACAGCGUGGCAAAGUGGCUGUGGCUAGACUGCCUCUCUGGAUUCCUCGUCACUCAGCAGGGCAUCUCUGAGAGAAAUGCC [U14C G60U] is ___
(A) 0.04

(Q) Fill in: self-cleavage of UACGUAGGUGGUUUUCCCCUGAUAGUGCUAAGGGGGCCCGGAAGUUUGGACUGGGCAGAGCUCAACACAGCGUGGCAAAGUGGCUGUGGCUAGACUGCCUCUCUGGAUUCCUCGCCACUCAGCAGGGCAUCUCUGAGAGAAAUGCC [U39C U115C] is ___
(A) 1.37

(Q) Fill in: self-cleavage of UACGUAGGUGGUUUUCCCCUGGUAGUGCUUAGGGGGCCUGGAAGUUUGGACUGGGCAGAGCUCAACACAGCGUGGCAAAGUGGCUGUGGCUAGACUGCCUCUCUGGAUUCCUCGUCACUCAGCAGGGCAUCUCUGAGAGAAAUGCC [A22G A30U] is ___
(A) 0.58

(Q) Fill in: self-cleavage of UACGUAGGUGGUUUUCCCCUGAUGGUGCUAAGGGGGCCUGGAAGUUUGGACUGGGCUGAGCUCAACACAGCGUGGCAAAGUGGCUGUGGCUAGACUGCCUCUCUGGAUUCCUCGUCACUCAGCAGGGCAUCUCUGAGAGAAAUGCC [A24G A57U] is ___
(A) 0.27

(Q) Fill in: self-cleavage of UACGUAGGUGGAUUUCCCCUGAUAGUGCUAAGGGGGCCUGGAAGUUUGGACUGGGCAGAGCUCAACACAGCGUGGCAAAGUGGCUGUGGCUAGACUGCCUCUCUGGAUUCCUCGUCACUCAGCAGGGCAUCUCUGAGAGUAAUGCC [U12A A140U] is ___
(A) 1.09

(Q) Fill in: self-cleavage of UACGUAGGUGGUUUUCCCCUGAUAGUGCUAAGGGGGCCUGGAAGUUUGGACUGGGCAGAGCUCAACACAGCGUGGCAAAGUGGCUGUGGCUAGACUGCGUCUCUGGAUUCCUCGUCACUCAGCAGGGCGUCUCUGAGAGAAAUGCC [C99G A129G] is ___
(A) 0.3

(Q) Fill in: self-cleavage of UACGUAGGUGGUUAUCCCCUGAUAGUGCUAAGGGGGCCUGGAAGUUUGGACUGGGCAGAGCUCAACACAGCGUGGCAAAGUGGCUGUGGCUAGACUGCCUCUCUGGAUUCCUCGUCACACAGCAGGGCAUCUCUGAGAGAAAUGCC [U14A U119A] is ___
(A) 1.02
